Sourced from the supplement of paper PMC12645437

Target: T1, CRBN, Q96SW2;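 note: pooled lentiviral library of zinc finger degron-EGFP fusions in mCherry-positive Jurkat cells, FACS-sorted after compound exposure, with degron abundance counted by next-generation sequencing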
T1 chain: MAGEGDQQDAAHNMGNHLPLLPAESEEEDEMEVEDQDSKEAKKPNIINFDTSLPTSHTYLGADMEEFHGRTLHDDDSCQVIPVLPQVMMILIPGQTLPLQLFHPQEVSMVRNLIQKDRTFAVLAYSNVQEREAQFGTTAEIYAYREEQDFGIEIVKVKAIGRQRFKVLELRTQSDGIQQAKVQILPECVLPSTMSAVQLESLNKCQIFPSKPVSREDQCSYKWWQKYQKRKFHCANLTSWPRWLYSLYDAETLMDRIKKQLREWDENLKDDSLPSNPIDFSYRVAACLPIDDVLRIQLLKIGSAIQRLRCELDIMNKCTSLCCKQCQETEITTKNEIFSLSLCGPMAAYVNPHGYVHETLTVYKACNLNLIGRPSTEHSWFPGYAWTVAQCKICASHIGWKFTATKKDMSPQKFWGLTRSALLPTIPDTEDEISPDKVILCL
Test: log2 fold change of degron read counts, EGFP-low vs EGFP+ sorted cells (limma voom), compound-induced degradation; higher = more compound-induced degradation of the degron-EGFP fusion; degrons are variants of IKZF1/3 zinc finger 2; compound dose not given here
Settings: Jurkat; 18 h; compound: compound 19 (5-tert-butyl-thalidomide)
In all, about 8,300 sequences were measured (“log2 fold change of degron read counts, EGFP-low vs EGFP+ sorted cells (limma voom), compound-induced degradation”: median about -1.1, highest 2% from about 3.2 on). The sample as a whole holds a higher share of the highest values than the screen did.
Each record here notes measured log2 fold change of degron read counts.

[
  {
    "residueCodes": "FFCEVCGARFTQKGNLLRHIKL [46F_47F_49E_50V_52G_53A_54R_55F_67L_, Q9UKT9]",
    "log2 fold change of degron read counts": 3.78
  },
  {
    "residueCodes": "FACEICGRNFTQKGNLLRHIKL [46F_47A_49E_50I_52G_53R_54N_55F_67L_, Q9UKT9]",
    "log2 fold change of degron read counts": -0.441
  },
  {
    "residueCodes": "FQCPQCGAMFTQKGNLLRHIKL [46F_47Q_49P_50Q_52G_53A_54M_55F_67L_, Q9UKT9]",
    "log2 fold change of degron read counts": -1.88
  },
  {
    "residueCodes": "FYCEVCGADFTQKGNLLRHIKL [46F_47Y_49E_50V_52G_53A_54D_55F_67L_, Q9UKT9]",
    "log2 fold change of degron read counts": 0.695
  }
]
